# experimentDescription: Minimum concentration killing the cell monolayer (MTD), read in the plaque reduction test
# Type: cell-based, African Green Monkey
# measurementContext: monkey, vero cells; minimum concentration which killed the cell monolayer; virus infected Vero cultures, 6 days at 37°C
Consider the following molecules; for each one, report its MCC at 144 h.

Lookup: # lookup: MCC at 144 h of `CCCN(CCC)S(=O)(=O)c1ccc(C(=O)n2c(=O)c(/C=C/Br)cn([C@H]3C[C@H](O)[C@@H](CO)O3)c2=O)cc1`
Found: > 100 µg/mL

Lookup: For the molecule shown here, `O=C(c1ccc(Cl)cc1)n1c(=O)c(/C=C/Br)cn([C@H]2C[C@H](O)[C@@H](CO)O2)c1=O` , give the reported MCC at 144 h.
Found: > 100 µg/mL

Lookup: # input molecule: `O=C(c1ccccc1)n1c(=O)c(/C=C/Br)cn([C@H]2C[C@H](O)[C@@H](CO)O2)c1=O` ; wanted: its MCC at 144 h
Found: 100 µg/mL

Lookup: MCC at 144 h for `O=C(OC[C@H]1O[C@@H](n2cc(/C=C/Br)c(=O)[nH]c2=O)C[C@@H]1O)c1ccc(Cl)cc1` ?
Found: > 100 µg/mL

Lookup: # get_value(readout='MCC at 144 h', item= `Cc1ccc(C(=O)OC[C@H]2O[C@@H](n3cc(/C=C/Br)c(=O)[nH]c3=O)C[C@@H]2O)cc1` )
Found: > 100 µg/mL

Lookup: Can you look up the measured MCC at 144 h of `O=C(C1CCCCC1)n1c(=O)c(/C=C/Br)cn([C@H]2C[C@H](O)[C@@H](CO)O2)c1=O` for me?
Found: > 100 µg/mL

Lookup: Recorded MCC at 144 h of `COc1ccc(C(=O)OC[C@H]2O[C@@H](n3cc(/C=C/Br)c(=O)[nH]c3=O)C[C@@H]2O)cc1` , please.
Found: 100 µg/mL

Lookup: What value of measured MCC at 144 h is listed for `CN(C)c1ccc(C(=O)O[C@H]2C[C@H](n3cc(/C=C/Br)c(=O)[nH]c3=O)O[C@@H]2CO)cc1` ?
Found: > 100 µg/mL

Lookup: Would you kindly share the measured MCC at 144 h for `O=C(O[C@H]1C[C@H](n2cc(/C=C/Br)c(=O)n(C(=O)c3ccccc3)c2=O)O[C@@H]1CO)c1ccccc1` ?
Found: 100 µg/mL
